PROTOCOL TEXT: yeast display, Sf9 membrane polyspecificity reagent, FACS + sequencing; frameworks hold sequencing errors
RESULT TYPE: polyreactivity (PSR sort gate)

Guide cases for polyreactivity (PSR sort gate), answers given:
{"SEQUENCE TEXT": "QVQLVESGGGLVQEGGSLRLSCAASGSIFDDYAMGWYRQAPGKEWELVAAITSGGSTYYADSVKGRFTISRDNAKNTVYLQMNSLKPEDTAVYYRATRYHWSSSFAPVGAYGYWGHGTQVTVSS", "polyreactivity (PSR sort gate)": "low polyreactivity"}
{"SEQUENCE TEXT": "QVQLVESGGGLVQAGCSLRLSCAASGRIFTTYAMGWYRQAPGKERELVASIDSRGDSTYADSVKGRFTISRDNAKNTVYLQMNSLKPEDTAVYYCAADSWYTWFDSWGQGTQVTVSS", "polyreactivity (PSR sort gate)": "low polyreactivity"}
{"SEQUENCE TEXT": "HVQLVESGGGLVQAGGSLRLSCAASGIIFPIYAMGWYRQAARKERELVASISQSGASTYYADSVKGRFTISRDNAKNTVYLQMNSLNPEDTGVYYCAALNGVGPWQLSYEEFDYWGQGTQVTVSS", "polyreactivity (PSR sort gate)": "low polyreactivity"}
{"SEQUENCE TEXT": "QVQLVESGGGLVQAGGSLRLSCAASGIIIRYYGMGWYRQAPGKERELVARIRWTGGSTYYADSVKGRFTISRDNAKNTVYLQMNSLKPEDTAVYYCAADIWQYSRIANYHPYDYWGQGTQVTVSS", "polyreactivity (PSR sort gate)": "low polyreactivity"}
{"SEQUENCE TEXT": "QVQLVESGGGLVQAGGSLRLSCAASGSTFVYYAMGWYRQAPGKEREFVAAINGGGRTNYADSVKGRFTISRDNAKNTVYLQMNSLKPEDTAVYDCAADGLSNVRQMDYWGQGTQVTVSS", "polyreactivity (PSR sort gate)": "low polyreactivity"}

Ask: Would you kindly share the measured polyreactivity (PSR sort gate) for `QVQLEESGGGIVQAGGSLRLSCAASGRTFYGYAMGWYRQAPGKEREFVAAINERGTSTYYADSVKGRFTISRDNAKNTVYLQMNSLKPEDTAVYYCAARYLRTQYQDGTRSRIQLDYWGQGTQVTVSS` ?
Reply: high polyreactivity

Ask: Would you kindly repeat that for `QVQLVESGGGLVQAGGSLRLSCAASGFTFGVYAMGWYRQAPGKERDLVAAISTTVGSTYYADSVKGRFTISRDNAKNTVYLQMNSLKPEDTAVDYCAAEYTGYINYYIYEYWGQGTQVTVSS` ?
Reply: low polyreactivity

Ask: Can you check `QVQLVESGGGLVQAGGSLRLSCAASGFIFLYNAMGWYRPAPGKERQLVAAITSSGATTYYADSVKGRFTISRDNAKNTDYLQMNSLKPEDTAVYYCAARYTGRNGGSTTPEYDYWGQGTQVTVSS` next?
Reply: low polyreactivity

Ask: Follow-up entry: `QVQLVEPGGGLVQAGGSLRLSCAASGSTFVEYDMGWYRQAPGKERELVAGINSGDRTNYADSVKGRFTISRDNEKNTVYLQMNSLKPEDTAVYYCAVDYRSYAYDYWGQGTQVSVSS`
Reply: low polyreactivity

Ask: Input `QDQLVESGGGLVQAGGSLRLSCAASGGTFWAYAMGWYRQAPGKERENVAAIRRSGRTYYADSVKGRITISRDNAKNTVYLQMNRLKPEDTAVDYCAKYGPTPGTLRDDYWGQGTQVTVSS`
Reply: high polyreactivity

Ask: Next sequence up: `QVQLVESGGGLVQARGSLRLSCAASGIIFKGYAMGWYRQAPGKERELVAGITRYGGGTYYADSVKGRFTISRDNAMNTVYLQMNRLKPEDTAVYYCAAVRIARAVQDYDYWGQGTQVTVSS`
Reply: high polyreactivity

Ask: And the next one, `QVQLVESGGGLVQAGGSLRLSCAASGITFYRYAMGWYRQAPGKERELVASISSRGSSTYYADSVKGRFTISRDNAKNTVYLQMNSLKPEDTAVYYCAKSRGSRGFVASTYNYWGQGTQVTVSS` ?
Reply: high polyreactivity
